Test system: MT-4 cell RNA synthesis
assay.comment: Incorporation of radiolabeled precursors into MT-4 cell RNA
Type: cell-based
details: Homo sapiens, MT4; MT-4 cells, 20 to 24 hr; read-out: IC50, [5-3H]Urd incorporation
endpoint: IC50 (µg/mL)

• CC(C)(C)[Si](C)(C)OC[C@H]1O[C@@H](n2ccc(=O)[nH]c2=O)[C@H](O[Si](C)(C)C(C)(C)C)[C@]12OS(=O)(=O)C=C2N = 11
• Cc1cn([C@@H]2O[C@H](CO[Si](C)(C)C(C)(C)C)[C@@]3(OS(=O)(=O)C=C3N)[C@H]2O[Si](C)(C)C(C)(C)C)c(=O)nc1N = 8.9

----------
Test system: MT-4 cells
assay.comment: Cytotoxicity for mock-infected MT-4 cells
details: at 100 μg/ml
endpoint: cytotoxicity to MT-4 cells (in words)

• CC(C)(C)[Si](C)(C)OC[C@H]1O[C@@H](n2ccc(N)nc2=O)[C@H](O[Si](C)(C)C(C)(C)C)[C@]12OS(=O)(=O)C=C2N = not cytotoxic
• C=CCn1c(=O)c(C)cn([C@@H]2O[C@H](CO[Si](C)(C)C(C)(C)C)[C@@]3(OS(=O)(=O)C=C3N)[C@H]2O[Si](C)(C)C(C)(C)C)c1=O = not cytotoxic
• Cc1cn([C@@H]2O[C@H](CO[Si](C)(C)C(C)(C)C)[C@@]3(OS(=O)(=O)C=C3N)[C@H]2O[Si](C)(C)C(C)(C)C)c(=O)nc1N = not cytotoxic

----------
assay.comment: Partition coefficient (Pa) between 1-octanol and 10 mM potassium phosphate buffer
Assay type: physicochemical
details: 1-octanol / 10 mM potassium phosphate buffer, pH 7.5, 50 μM
endpoint: presence in the n-octanol phase compared to the aqueous phase

• CC(=O)Nc1ccn([C@@H]2O[C@H](CO[Si](C)(C)C(C)(C)C)[C@@]3(OS(=O)(=O)C=C3N)[C@H]2O[Si](C)(C)C(C)(C)C)c(=O)n1 = more than 95%
• Cc1cn([C@@H]2O[C@H](COC(=O)c3ccccc3)[C@@]3(OS(=O)(=O)C=C3N)[C@H]2O[Si](C)(C)C(C)(C)C)c(=O)[nH]c1=O = more than 95%
• CCn1c(=O)c(C)cn([C@@H]2O[C@H](CO[Si](C)(C)C(C)(C)C)[C@@]3(OS(=O)(=O)C=C3N)[C@H]2O[Si](C)(C)C(C)(C)C)c1=O = more than 95%
• CC(C)(C)[Si](C)(C)OC[C@H]1O[C@@H](n2ccc(=O)[nH]c2=O)[C@H](O[Si](C)(C)C(C)(C)C)[C@]12OS(=O)(=O)C=C2N = more than 95%
• Cc1cn([C@@H]2O[C@H](CO)[C@@]3(OS(=O)(=O)C=C3N)[C@H]2O[Si](C)(C)C(C)(C)C)c(=O)[nH]c1=O = more than 95%
• Cc1cn([C@@H]2O[C@H](CO[Si](C)(C)C(C)(C)C)[C@@]3(OS(=O)(=O)C=C3N)[C@H]2O)c(=O)[nH]c1=O = more than 95%

----------
assay.comment: Cytotoxicity for mock-infected MT-4 cells
details: human, mt-4 cells
endpoint: CC50 at 120 h (µg/mL)

* Cc1cn([C@@H]2O[C@H](CO[Si](C)(C)C(C)(C)C)[C@@]3(OS(=O)(=O)C=C3N)[C@H]2O)c(=O)[nH]c1=O | 45
* Cc1cn([C@@H]2O[C@H](CO[Si](C)(C)C(C)(C)C)[C@@]3(OS(=O)(=O)C=C3N)[C@H]2O[Si](C)(C)C(C)(C)C)c(=O)n(C)c1=O | 139

----------
assay.comment: Cytotoxicity for mock-infected MT-4 cells
details: human, mt-4 cells
Listed next: entries and their corresponding CC50 at 120 h.
endpoint: CC50 at 120 h

- CC(C)(C)[Si](C)(C)OC[C@H]1O[C@@H](n2ccc(N)nc2=O)[C@H](O[Si](C)(C)C(C)(C)C)[C@]12OS(=O)(=O)C=C2N [Compound 14]: ≥ 200 µg/mL
- C=CCn1c(=O)ccn([C@@H]2O[C@H](CO[Si](C)(C)C(C)(C)C)[C@@]3(OS(=O)(=O)C=C3N)[C@H]2O[Si](C)(C)C(C)(C)C)c1=O [Compound 13]: 5.31 µg/mL
- Cc1cn([C@@H]2O[C@H](CO[Si](C)(C)C(C)(C)C)[C@@]3(OS(=O)(=O)C=C3N)[C@H]2O[Si](C)(C)C(C)(C)C)c(=O)nc1N [Compound 16]: 17.7 µg/mL
- CC(=O)Nc1ccn([C@@H]2O[C@H](CO[Si](C)(C)C(C)(C)C)[C@@]3(OS(=O)(=O)C=C3N)[C@H]2O[Si](C)(C)C(C)(C)C)c(=O)n1 [Compound 15]: 7.5 µg/mL
- CC(C)(C)[Si](C)(C)OC[C@H]1O[C@@H](n2cnc3c(N)ncnc32)[C@H](O[Si](C)(C)C(C)(C)C)[C@]12OS(=O)(=O)C=C2N [Compound 17]: 7.3 µg/mL
- CC(C)(C)[Si](C)(C)OC[C@H]1O[C@@H](n2ccc(=O)[nH]c2=O)[C@H](O[Si](C)(C)C(C)(C)C)[C@]12OS(=O)(=O)C=C2N [Compound 11]: 8.3 µg/mL

----------
System: MT-4 cell RNA synthesis
assay.comment: Incorporation of radiolabeled precursors into MT-4 cell RNA
Assay type: cell-based
details: Homo sapiens, MT4; MT-4 cells, 20 to 24 hr; read-out: IC50, [5-3H]Urd incorporation
endpoint: IC50

• CC(C)=CCn1c(=O)c(C)cn([C@@H]2O[C@H](CO[Si](C)(C)C(C)(C)C)[C@@]3(OS(=O)(=O)C=C3N)[C@H]2O[Si](C)(C)C(C)(C)C)c1=O = > 100 µg/mL
• Cc1cn([C@@H]2O[C@H](CO[Si](C)(C)C(C)(C)C)[C@@]3(OS(=O)(=O)C=C3N)[C@H]2O[Si](C)(C)C(C)(C)C)c(=O)n(C)c1=O = > 100 µg/mL
• CC(C)(C)[Si](C)(C)OC[C@H]1O[C@@H](n2ccc(N)nc2=O)[C@H](O[Si](C)(C)C(C)(C)C)[C@]12OS(=O)(=O)C=C2N = > 100 µg/mL

----------
System: MT-4 cell DNA synthesis
assay.comment: Incorporation of radiolabeled precursors into MT-4 cell DNA
Type: cell-based
details: Homo sapiens, MT4; MT-4 cells, 20 to 24 hr; read-out: IC50, [5-3H]dUrd incorporation
Listed next: entries and their corresponding IC50.
endpoint: IC50

- Cc1cn([C@@H]2O[C@H](CO[Si](C)(C)C(C)(C)C)[C@@]3(OS(=O)(=O)C=C3N)[C@H]2O[Si](C)(C)C(C)(C)C)c(=O)nc1N [Compound 16]: 9.9 µg/mL
- CC(C)=CCn1c(=O)c(C)cn([C@@H]2O[C@H](CO[Si](C)(C)C(C)(C)C)[C@@]3(OS(=O)(=O)C=C3N)[C@H]2O[Si](C)(C)C(C)(C)C)c1=O [Compound 9]: > 100 µg/mL
- Cc1cn([C@@H]2O[C@H](CO[Si](C)(C)C(C)(C)C)[C@@]3(OS(=O)(=O)C=C3N)[C@H]2O[Si](C)(C)C(C)(C)C)c(=O)n(C)c1=O [Compound 6]: > 100 µg/mL
- CC(C)(C)[Si](C)(C)OC[C@H]1O[C@@H](n2ccc(=O)[nH]c2=O)[C@H](O[Si](C)(C)C(C)(C)C)[C@]12OS(=O)(=O)C=C2N [Compound 11]: 12 µg/mL
- CC(C)(C)[Si](C)(C)OC[C@H]1O[C@@H](n2ccc(N)nc2=O)[C@H](O[Si](C)(C)C(C)(C)C)[C@]12OS(=O)(=O)C=C2N [Compound 14]: > 100 µg/mL
- C=CCn1c(=O)c(C)cn([C@@H]2O[C@H](CO[Si](C)(C)C(C)(C)C)[C@@]3(OS(=O)(=O)C=C3N)[C@H]2O[Si](C)(C)C(C)(C)C)c1=O [Compound 8]: > 100 µg/mL
